Data credit: patent US8546389B2

Target: 1b (BK) NS5bΔ21 (Hepatitis C virus genotype 1b (isolate BK) (HCV), UniProt P26663)
Sequence (P26663 2420-2989): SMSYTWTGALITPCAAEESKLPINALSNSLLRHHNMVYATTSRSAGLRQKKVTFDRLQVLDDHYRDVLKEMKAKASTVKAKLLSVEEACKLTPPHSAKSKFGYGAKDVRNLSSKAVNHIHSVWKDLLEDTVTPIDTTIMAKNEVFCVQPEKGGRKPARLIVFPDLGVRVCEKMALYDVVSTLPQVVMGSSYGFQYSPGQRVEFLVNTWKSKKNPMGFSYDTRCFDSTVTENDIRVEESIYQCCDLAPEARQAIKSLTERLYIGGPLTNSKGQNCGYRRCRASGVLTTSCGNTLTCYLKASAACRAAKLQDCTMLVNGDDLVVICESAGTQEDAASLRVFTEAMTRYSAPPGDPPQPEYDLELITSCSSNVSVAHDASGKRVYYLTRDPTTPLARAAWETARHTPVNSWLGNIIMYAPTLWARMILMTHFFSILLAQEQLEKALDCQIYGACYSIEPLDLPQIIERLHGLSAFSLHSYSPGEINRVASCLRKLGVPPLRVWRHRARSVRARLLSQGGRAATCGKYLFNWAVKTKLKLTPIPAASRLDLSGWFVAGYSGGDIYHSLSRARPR
Assay: HCV polymerase inhibition assay, genotype 1b
Type: biochemical, HCV genotype 1b (BK)
Settings: 1b (BK) NS5bΔ21, 33P-GTP incorporation; read-out: 1b polymerase IC50 (range class)
Description: HCV polymerase reactions were carried out using a modified method of Howe et al., Antimicrobial Agents and Chemotherapy 2004 48(12): 4813-4821. […] Terminated reactions were transferred to DEAE 96-well filter plates, unincorporated nucleotides washed from the filters and 50 μL scintillation fluid added prior to reading on a scintillation counter. […]
pIC50: −log10 of the molar value.
Kindly state pIC50 for each of the entries shown.

Ask: Which value of pIC50 has been reported for CCN(c1cc2nn(-c3ccccc3)c(C(=O)NC)c2cc1OC)S(C)(=O)=O in the records?
Result: 4.30 to 5.00

Ask: # get_value(readout='pIC50', item= CCN(c1cc2nn(-c3ccc(OCC(C)C)cc3)c(C(=O)NC)c2cc1C1CC1)S(C)(=O)=O )
Result: 5.00 to 6.00

Ask: // query pIC50 value for entry CCOC(=O)CN(c1cc2nn(-c3ccc(Br)cc3)c(C(=O)NC)c2cc1C1CC1)S(C)(=O)=O
Result: 5.00 to 6.00

Ask: So what's the measured pIC50 for this one? CCN(c1cc2nn(-c3ccc(NC(C)C)cc3)c(C(=O)NC)c2cc1C1CC1)S(C)(=O)=O
Result: 5.00 to 6.00

Ask: I am curious: what pIC50 value has been reported for CNC(=O)c1c2cc(C3CC3)c(N(CC(F)F)S(C)(=O)=O)cc2nn1-c1ccc(Br)cc1 ?
Result: > 6.00

Ask: Item CCN(c1cc2nn(-c3ccc(NC)nc3)c(C(=O)NC)c2cc1C1CC1)S(C)(=O)=O has what recorded pIC50?
Result: > 6.00

Ask: Sample CNC(=O)c1c2cc(C3CC3)c(N([C@H]3CCNC3)S(C)(=O)=O)cc2nn1-c1ccc(Br)cc1 (racemic) — what was its pIC50?
Result: 5.00 to 6.00

Ask: I would be grateful if you could share the reported pIC50 for CCS(=O)(=O)NC(=O)CCCN(c1cc2nn(-c3ccc(Br)cc3)c(C(=O)NC)c2cc1C1CC1)S(C)(=O)=O .
Result: > 6.00

Ask: If you can, please state the reported pIC50 value of CNC(=O)c1c2cc(C3CC3)c(N3CCCCC3=O)cc2nn1-c1ccc(Nc2ccc(F)cc2)cc1 .
Result: 4.30 to 5.00

Ask: Name the recorded pIC50 for CNC(=O)c1c2cc(C3CC3)c(N(CCC(CO)CO)S(C)(=O)=O)cc2nn1-c1ccc(Br)cc1 .
Result: > 6.00
